# Tested on: p21 promoter-luciferase construct in HeLa cells
# EXPERIMENTAL DETAILS: p21 reporter gene induction
# Assay type: cell-based
# EXPERIMENTAL CONDITIONS: 3 micromolar, 15 hours, relative to SNDX-275
EXPERIMENTAL READOUT: p21 (RP3): relative induction potency compared with SNDX-275 (%)
Answers are plain numbers, in %.

Check out these entries, answers already filled in.
# COMPOUND, SYSTEM NAME, VAL
records = [
    ("Nc1ccccc1NC(=O)/C=C/c1ccc(C(NCCN2CCOCC2)C(=O)Nc2ccc(Cl)cc2)cc1 (stereo not drawn)", "p21 promoter-luciferase construct in HeLa cells", 193),
    ("Nc1ccccc1NC(=O)/C=C/c1ccc(C(OCCN2CCOCC2)C(=O)Nc2ccc(C(F)(F)F)cc2)cc1 (stereo not drawn)", "p21 promoter-luciferase construct in HeLa cells", 98),
    ("Nc1ccccc1NC(=O)/C=C/c1ccc(C(C(=O)Nc2ccc(C(F)(F)F)cc2)N2CCCCC2)cc1 (stereo not drawn)", "p21 promoter-luciferase construct in HeLa cells", 10),
    ("Nc1ccccc1NC(=O)/C=C/c1ccc(C(NCCN2CCCCC2)C(=O)Nc2ccc(OC(F)(F)F)cc2)cc1 (stereo not drawn)", "p21 promoter-luciferase construct in HeLa cells", 130),
]

Provide reported p21 (RP3): relative induction potency compared with SNDX-275 for each item, in the same order as listed.
1. CC(C)c1ccc(NC(=O)C(NCCN2CCOCC2)c2ccc(/C=C/C(=O)Nc3ccccc3N)cc2)cc1 (stereo not drawn)
2. Nc1ccccc1NC(=O)/C=C/c1ccc(C(NCCCN2CCOCC2)C(=O)Nc2ccc(C(F)(F)F)cc2)cc1 (stereo not drawn)

1. 60
2. 241

====

Consider the following compounds; for each one, report its p21 (RP3): relative induction potency compared with SNDX-275.
# System: p21 promoter-luciferase construct in HeLa cells
# EXPERIMENTAL DETAILS: p21 reporter gene induction
# Type: cell-based
# EXPERIMENTAL CONDITIONS: 3 micromolar, 15 hours, relative to SNDX-275
Numbers only, in %.

// input: 3 compounds below; output: p21 (RP3): relative induction potency compared with SNDX-275 for each
1. Nc1ccccc1NC(=O)/C=C/c1ccc(C(NCCN2CCOCC2)C(=O)Nc2ccc(C(F)(F)F)cc2)cc1 (stereo not drawn)
2. Nc1ccccc1NC(=O)/C=C/c1ccc(C(NCCCN2CCOCC2)C(=O)Nc2ccc(C3CC3)cc2)cc1 (stereo not drawn)
3. CC(C)(C)c1ccc(NC(=O)C(NCCO)c2ccc(/C=C/C(=O)Nc3ccccc3N)cc2)cc1 (stereo not drawn)

1: 100; 2: 156; 3: 41

Dear reader, for each entry below, please note its p21 (RP3): relative induction potency compared with SNDX-275.
1. Nc1ccccc1NC(=O)/C=C/c1ccc(C(NCCN2CCOCC2)C(=O)Nc2ccc(C3CC3)cc2)cc1 (stereo not drawn)
2. CN(C)CCNC(C(=O)Nc1ccc(C(F)(F)F)c(F)c1)c1ccc(/C=C/C(=O)Nc2ccccc2N)cc1 (stereo not drawn)
3. Nc1ccccc1NC(=O)/C=C/c1ccc(C(NCCN2CCOCC2)C(=O)Nc2ccc(C(F)(F)F)cc2F)cc1 (stereo not drawn)
4. Nc1ccccc1NC(=O)/C=C/c1ccc(C(C(=O)Nc2ccc(C(F)(F)F)cc2)N2CCCC2)cc1 (stereo not drawn)
5. N#Cc1ccc(NC(=O)C(NCCN2CCOCC2)c2ccc(/C=C/C(=O)Nc3ccccc3N)cc2)cc1 (stereo not drawn)
6. Nc1ccccc1NC(=O)/C=C/c1ccc(C(NCCN2CCSCC2)C(=O)Nc2ccc(C(F)(F)F)cc2)cc1 (stereo not drawn)
7. CNC(C(=O)Nc1ccc(C(F)(F)F)cc1)c1ccc(/C=C/C(=O)Nc2ccccc2N)cc1 (stereo not drawn)

[79, 128, 103, 97, 99, 84, 84]

// for each compound below, give its p21 (RP3): relative induction potency compared with SNDX-275
1. Nc1ccccc1NC(=O)/C=C/c1ccc(C(NCCC2CCOCC2)C(=O)Nc2ccc(C(F)(F)F)cc2)cc1 (stereo not drawn)
2. CN(C)CCNC(C(=O)Nc1ccc(OC(F)(F)F)cc1)c1ccc(/C=C/C(=O)Nc2ccccc2N)cc1 (stereo not drawn)
3. C[C@@H]1CN(CCNC(C(=O)Nc2ccc(C(F)(F)F)cc2)c2ccc(/C=C/C(=O)Nc3ccccc3N)cc2)C[C@H](C)O1 (stereo partly drawn)
4. Nc1ccccc1NC(=O)/C=C/c1ccc(C(C(=O)Nc2ccc(C(F)(F)F)cc2)N2CCNCC2)cc1 (stereo not drawn)
5. Nc1ccccc1NC(=O)/C=C/c1ccc(C(NCCN2CCCCC2)C(=O)Nc2ccc(C(F)(F)F)cc2)cc1 (stereo not drawn)

1: 70; 2: 184; 3: 33; 4: 54; 5: 324

====

# System: klf2 promoter-luciferase construct in A204 cells
# EXPERIMENTAL DETAILS: klf2 reporter gene induction (p21 versus klf2 selectivity)
# Format: cell-based
# EXPERIMENTAL CONDITIONS: 3 micromolar; SNDX-275 p21/klf2 ratio defined as 1.0
EXPERIMENTAL READOUT: p21/klf2 (RP3): relative selectivity compared with SNDX-275
Numbers only.

Guide cases for p21/klf2 (RP3): relative selectivity compared with SNDX-275, answers given:
# COMPOUND, VAL
rows = [
    ("Nc1ccccc1NC(=O)/C=C/c1ccc(C(NCCCN2CCOCC2)C(=O)Nc2ccc(C(F)(F)F)cc2)cc1 (stereo not shown)", 1.2),
    ("Nc1ccccc1NC(=O)/C=C/c1ccc(C(NCCN2CCCCC2)C(=O)Nc2ccc(C(F)(F)F)cc2F)cc1 (stereo not shown)", 2.0),
    ("Nc1ccccc1NC(=O)/C=C/c1ccc(C(C(=O)Nc2ccc(C(F)(F)F)cc2)N2CCNCC2)cc1 (stereo not shown)", 0.5),
    ("Nc1ccccc1NC(=O)/C=C/c1ccc(C(NCCN2CCOCC2)C(=O)Nc2ccc(C(F)(F)F)cc2F)cc1 (stereo not shown)", 1.8),
    ("Nc1ccccc1NC(=O)/C=C/c1ccc(C(NCCN2CCOCC2)C(=O)Nc2ccc(C(F)(F)F)cc2)cc1 (stereo not shown)", 1.3),
    ("Nc1ccccc1NC(=O)/C=C/c1ccc(C(OCCN2CCOCC2)C(=O)Nc2ccc(C(F)(F)F)cc2)cc1 (stereo not shown)", 1.6),
]

Please find the next compound below.
Annotate the compound CN(C)CCNC(C(=O)Nc1ccc(C(F)(F)F)c(F)c1)c1ccc(/C=C/C(=O)Nc2ccccc2N)cc1 (stereo not shown) with its measured p21/klf2 (RP3): relative selectivity compared with SNDX-275.
1.5

====

Record form. Attribute: p21/klf2 (RP3): relative selectivity compared with SNDX-275. Fill in for each entry.
# System: klf2 promoter-luciferase construct in A204 cells
# EXPERIMENTAL DETAILS: klf2 reporter gene induction (p21 versus klf2 selectivity)
# Type: cell-based
# EXPERIMENTAL CONDITIONS: 3 micromolar; SNDX-275 p21/klf2 ratio defined as 1.0
One number for each entry.

# MOLECULE, VAL
measured = [
    ("Nc1ccccc1NC(=O)/C=C/c1ccc(C(NCCN2CCOCC2)C(=O)Nc2ccc(C(F)(F)F)c(Cl)c2)cc1 (stereo not shown)", 0.6),
    ("Nc1ccccc1NC(=O)/C=C/c1ccc(C(NCCN2CCCCC2)C(=O)Nc2ccc(Br)cc2)cc1 (stereo not shown)", 1.2),
    ("Nc1ccccc1NC(=O)/C=C/c1ccc(C(NCCCN2CCOCC2)C(=O)Nc2ccc(C3CC3)cc2)cc1 (stereo not shown)", 3.5),
]

Below are some molecules; for each one, tell me its p21/klf2 (RP3): relative selectivity compared with SNDX-275.
1. N#Cc1ccc(NC(=O)C(NCCN2CCOCC2)c2ccc(/C=C/C(=O)Nc3ccccc3N)cc2)cc1 (stereo not shown)
2. CN(C)C(C(=O)Nc1ccc(C(F)(F)F)cc1)c1ccc(/C=C/C(=O)Nc2ccccc2N)cc1 (stereo not shown)

1. 0.8
2. 0.9

Please state, for each entry, its recorded p21/klf2 (RP3): relative selectivity compared with SNDX-275.
1. Nc1ccccc1NC(=O)/C=C/c1ccc(C(C(=O)Nc2ccc(C(F)(F)F)cc2)N2CCCCC2)cc1 (stereo not shown)
2. Nc1ccccc1NC(=O)/C=C/c1ccc(C(NCCN2CCSCC2)C(=O)Nc2ccc(C(F)(F)F)cc2)cc1 (stereo not shown)

1: 0.3; 2: 1.2

====

Can you tell me p21 (RP3): relative induction potency compared with SNDX-275 for the items I'm about to list?
# Test system: p21 promoter-luciferase construct in HeLa cells
# EXPERIMENTAL DETAILS: p21 reporter gene induction
# Assay type: cell-based
# EXPERIMENTAL CONDITIONS: 3 micromolar, 15 hours, relative to SNDX-275
Numbers only, in %.

Solved cases (5 shown):
# COMPOUND, UNIT INFO, VAL
measured = [
    ("CN(C)CCNC(C(=O)Nc1ccc(C(F)(F)F)cc1)c1ccc(/C=C/C(=O)Nc2ccccc2N)cc1 (stereo not drawn) [Example 4-1]", "%", 300),
    ("CN(C)CCNC(C(=O)Nc1ccc(C(F)(F)F)cc1F)c1ccc(/C=C/C(=O)Nc2ccccc2N)cc1 (stereo not drawn) [Example 4-24]", "%", 162),
    ("Cc1ccc(NC(=O)C(NCCN2CCOCC2)c2ccc(/C=C/C(=O)Nc3ccccc3N)cc2)cc1 (stereo not drawn) [Example 30-54]", "%", 183),
    ("Nc1ccccc1NC(=O)/C=C/c1ccc(C(NCCN2CCOCC2)C(=O)Nc2ccc(C(F)(F)F)cn2)cc1 (stereo not drawn) [Example 4-43]", "%", 89),
    ("CN(C)C(C(=O)Nc1ccc(C(F)(F)F)cc1)c1ccc(/C=C/C(=O)Nc2ccccc2N)cc1 (stereo not drawn) [Example 9-6]", "%", 47),
]

I need p21 (RP3): relative induction potency compared with SNDX-275 for every entry listed below, if you could help.
1. Nc1ccccc1NC(=O)/C=C/c1ccc(C(C(=O)Nc2ccc(C(F)(F)F)cc2)N2CCOCC2)cc1 (stereo not drawn) [Example 9-10]
2. Nc1ccccc1NC(=O)/C=C/c1ccc(C(NCCN2CCCCC2)C(=O)Nc2ccc(C(F)(F)F)cc2F)cc1 (stereo not drawn) [Example 4-35]
3. Nc1ccccc1NC(=O)/C=C/c1ccc(C(NCCO)C(=O)Nc2ccc(C(F)(F)F)cc2)cc1 (stereo not drawn) [Example 4-69]
4. Nc1ccccc1NC(=O)/C=C/c1ccc(C(NCCN2CCOCC2)C(=O)Nc2ccc(OC(F)(F)F)cc2)cc1 (stereo not drawn) [Example 4-4]

80
140
117
125

Quick request: p21 (RP3): relative induction potency compared with SNDX-275 for each listed item, please.
1. Nc1ccccc1NC(=O)/C=C/c1ccc(C(NCCN2CCCCC2)C(=O)Nc2ccc(Br)cc2)cc1 (stereo not drawn) [Example 4-31]
2. Nc1ccccc1NC(=O)/C=C/c1ccc(C(NCCN2CCOCC2)C(=O)Nc2ccc(C(F)(F)F)c(F)c2)cc1 (stereo not drawn) [Example 4-36]
3. Nc1ccccc1NC(=O)/C=C/c1ccc(C(NCCN2CCOCC2)C(=O)Nc2ccc(C(F)(F)F)c(Cl)c2)cc1 (stereo not drawn) [Example 4-29]
4. Nc1ccccc1NC(=O)/C=C/c1ccc(C(NCCN2CCOCC2)C(=O)Nc2ccc(Br)cc2)cc1 (stereo not drawn) [Example 9-1]
5. Nc1ccccc1NC(=O)/C=C/c1ccc(C(NCCN2C[C@@H]3C[C@H]2CO3)C(=O)Nc2ccc(C(F)(F)F)cc2)cc1 (stereo partly drawn) [Example 4-12]
6. CN(C)CCNC(C(=O)Nc1ccc(Br)cc1)c1ccc(/C=C/C(=O)Nc2ccccc2N)cc1 (stereo not drawn) [Example 9-3]

[178, 43, 48, 144, 167, 152]
